ASSAY_EXPLANATION: Solubility in water
Assay type: physicochemical
Each entry below carries its reported solubility.

1) CCCCCCCCCCCC(=O)OCN1C(=O)CCc2ccc(OCCCCN3CCN(c4cccc(Cl)c4Cl)CC3)cc21: < 0.004 µg/mL

Please look at the following compound next.
Just so you know, measured solubility for CCCCCC(=O)OCN1C(=O)CCc2ccc(OCCCCN3CCN(c4cccc(Cl)c4Cl)CC3)cc21 came out at < 1 µg/mL

---

ASSAY_EXPLANATION: Solubility in a solution comprising 1.5% (w/w) polysorbate 20
Type: physicochemical
ASSAY_CONDITIONS: aqueous solution with 1.5% (w/w) polysorbate 20, aqueous with cosolvent or surfactant or cyclodextrin; 1.5% (w/w) polysorbate 20 at 40° C., pH 7
MEASURED_PROPERTY: solubility

1) CCCCCC(=O)OCN1C(=O)CCc2ccc(OCCCCN3CCN(c4cccc(Cl)c4Cl)CC3)cc21: < 50 µg/mL

Form field solubility, entry CCCCCCCCCCCC(=O)OCN1C(=O)CCc2ccc(OCCCCN3CCN(c4cccc(Cl)c4Cl)CC3)cc21 : < 2 µg/mL

The reported numbers originate from patent US10159671B2.
